Molecular target: T1, human IL4 (human, UniProt P05112 25-153, biotinylated in the SPR and competition assays (sites not given))
T1 sequence: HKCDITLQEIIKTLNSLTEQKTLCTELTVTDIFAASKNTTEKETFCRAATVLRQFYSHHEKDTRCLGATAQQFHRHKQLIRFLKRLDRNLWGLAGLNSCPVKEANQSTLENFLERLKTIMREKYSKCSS
Test: cell-based or functional assay
measuredEndpoint: A549 TARC Inhibition IC50 (nM)
One number for each entry, in nM.

Look up A549 TARC Inhibition IC50 for the entries below, preserving their order.
1. C06_6E9 (designed binder, ankyrin repeat protein; His-tagged, IMAC-purified) DLGKKLLEAARAGQDDEVRILMANGADVNAIDSDGTTPLHLAAMDGHLEIVEVLLKYGADVNAVDWNGDTPLHLAAVDGHLEIVEVLLKYGADVNAQDNLGDTPLHLAAYYGHLEIVEVLLKHGADVNASDFHGITPLHLAAFSGHLEIVEVLLKYGADVNAQDKFGKTAFDISIDNGNEDLAEILQKLN
2. C06_13A10 (designed binder, ankyrin repeat protein; His-tagged, IMAC-purified) DLGKKLLEAARAGQDDEVRILMANGADVNVSDRIGNTPLHLAAVYVHLEIVEVLLKNGADVNALDDDGLTPLHLAAADGHLEIVEVLLKHGADVNATDSHVWTPLHLAAFFGHLEIVEVLLKYGADVNAQDKFGKTAFDISIDNGNEDLAEILQKLN
3. C06_44C12 (designed binder, ankyrin repeat protein; His-tagged, IMAC-purified) DLGKKLLEAASAGQDDEVHILMANGADVNALDDSGYTPLHLAAEDGHLEIVEVLLKHGADVNAADRMGDTPLHLAAFVGHLEIVEVLLKYGADVNAVDLAGVTPLHVAAFYGHLEIVEVLLKYGADVNAQDKFGKTAFDISIDNGNEDLAEILQKLN

0.131
0.621
0.231
